# Assay target: HIV-1 protease (Human immunodeficiency virus type 1 group M subtype B, UniProt P04585)
# Assay name: Inhibition constants against HIV-1 protease (method of Pennington et al.)
# Format: biochemical
# Run parameters: HIV-1 protease; read-out: Ki value
// reported log10(Ki) for each item listed
Use the decimal logarithm of Ki (nM).

These solved cases illustrate the format of a correct answer.
• C=CCOC(=O)N[C@@H](Cc1ccccc1)[C@H](O)CN(CC1CCCC1)S(=O)(=O)c1ccc(OC)cc1 = -1.00
• C=C(C)COC(=O)N[C@@H](Cc1ccccc1)[C@H](O)CN(CC(C)C)S(=O)(=O)c1ccc(Cl)c(Cl)c1 = 0.15

log10(Ki) measured on CC(C)CN(C[C@@H](O)[C@H](Cc1ccccc1)NC(=O)O[C@@H]1CCOC1)S(=O)(=O)c1ccc(F)cc1 = -0.10
